# measurement_description: Cycloheximide Counterscreen for Small Molecule Inhibitors of Shiga Toxin; also: read at 38.3 µM for the half of the compounds with a filed dose; 0% is about no effect
# test_settings: cell reporter, cycloheximide protein synthesis inhibition counterscreen; hits give high values
About 37,000 (12%) of roughly 300,000 compounds were called active. Many of the other results were omitted from the sample, so actives are more common in it than they were.
observation_type: max response (%)
Numbers only, in %.

Reference set, count: 3
O=C(CN1CCN(c2ncc(C(F)(F)F)cc2Cl)CC1)Nc1ccc2c(c1)OCO2    2.27
O=C(NCCCN1CCOCC1)c1ccccc1NS(=O)(=O)c1ccc(Br)cc1    2.08
COc1cccc(NC(=O)CN(C)C(=O)c2ccccc2CCc2ccccc2)c1    -2.98

For each listed entry, give its max response.
1. COc1ccc(N(CC(=O)NC2CCCCC2)S(=O)(=O)c2c(C)[nH]c(=O)[nH]c2=O)cc1
2. COc1ccc(CN2CN(C3CCCC3)CSC2=S)cc1
3. CCC(C(=O)OC)n1cnc2c(oc3ccccc32)c1=O (stereo not drawn)
4. COc1ccc(CCNc2nc(C)cc(C)n2)cc1OC
5. O=C(c1ccco1)N1CCN(C(=S)Nc2cc(F)cc(F)c2)CC1

1. -1.68
2. 3.32
3. -2.56
4. -4.51
5. -0.627

Where do the numbers come from? From PubChem BioAssay AID2314.
